Where do these numbers come from? They come from the supplement of paper PMC6089552.

# System: A673/TR/shEF
# ASSAY_PROTOCOL: cell viability (LOESS-normalised, relative to median of negative controls) (log2 ratio); higher = more viable cells (less compound effect), active = hit call of the paper (over 3 MAD below the median)
# CONDITIONS: 2.8 µM; library screen: screen3; EWS-FLI1 expression: high (no doxycycline); treatment time: 72 h
Among all 3,200 compounds or so, about 300 (9.4%) showed activity. This is one part of a sample in which actives are shown more often than they occur.
Allowed answers: Yes (active), No (inactive)

Use the examples below as a reference point.
# MOLECULE, GROUP_LABEL
records = [
    ("Oc1ccc(OCc2ccccc2)cc1", "Yes"),
    ("Cc1nnc(C(C)C)n1C1C[C@H]2CC[C@@H](C1)N2CC[C@H](NC(=O)C1CCC(F)(F)CC1)c1ccccc1 (stereo partly specified)", "No"),
    ("CC1(C)S[C@@H]2[C@H](NC(=O)[C@H](N)c3ccc(O)cc3)C(=O)N2[C@H]1C(=O)O", "No"),
    ("CC(=O)O[C@H]1C(=O)[C@@]2(C)[C@H]([C@H](OC(=O)c3ccccc3)[C@]3(O)C[C@H](OC(=O)[C@H](O)[C@@H](NC(=O)c4ccccc4)c4ccccc4)C(C)=C1C3(C)C)[C@]1(OC(C)=O)CO[C@@H]1C[C@@H]2O", "Yes"),
    ("COc1cc2c(cc1O)CC[C@@H]1[C@@H]2CC[C@]2(C)[C@@H](O)CC[C@@H]12", "No"),
    ("C[C@]12CC[C@@H]3c4ccc(O)cc4CC[C@H]3[C@@H]1CC[C@@H]2O", "No"),
    ("CCC(C)[C@H]1O[C@]2(CC[C@@H]1C)CC1C[C@@H](C/C=C(\\C)[C@@H](O[C@H]3C[C@H](OC)[C@@H](OC4C[C@H](OC)[C@@H](O)[C@H](C)O4)[C@H](C)O3)[C@@H](C)/C=C/C=C3\\CO[C@@H]4[C@H](O)C(C)=C[C@@H](C(=O)O1)[C@]34O)O2.CO[C@H]1CC(O[C@H]2[C@H](C)O[C@@H](O[C@@H]3/C(C)=C/C[C@@H]4CC(C[C@]5(CC[C@H](C)[C@@H](C(C)C)O5)O4)OC(=O)[C@@H]4C=C(C)[C@@H](O)[C@H]5OC/C(=C\\C=C\\[C@@H]3C)[C@]54O)C[C@@H]2OC)O[C@@H](C)[C@@H]1O (stereo partly specified)", "Yes"),
    ("COc1ccc(-c2nc3ccc(C4=NNC(=O)CC4C)cc3[nH]2)cc1 (stereo unspecified)", "No"),
]

# lookup: test call for Nc1ncnc2nc[nH]c12
No

Thanks! And Cn1cncc1[C@@](N)(c1ccc(Cl)cc1)c1ccc2c(c1)c(-c1cccc(Cl)c1)cc(=O)n2C ?
Yes

Thanks! And Cn1cnc2c(F)c(Nc3ccc(Br)cc3Cl)c(C(=O)NOCCO)cc21 ?
Yes

Thanks! And CN1CC[C@H](c2c(O)cc(O)c3c(=O)cc(-c4ccccc4Cl)oc23)[C@H](O)C1 ?
Yes

Thanks! And Nc1ccc(S(=O)(=O)Nc2ncccn2)cc1 ?
No

Thanks! And Cn1cc(C2=C(c3ccc(Cl)cc3Cl)C(=O)NC2=O)c2ccccc21 ?
No

Thanks! And O=C(CCCCCCC(=O)Nc1ccccc1)NO ?
No
